Test system: Bacillus anthracis
run_description: Antibacterial activity against Bacillus anthracis Sterne assessed as growth inhibition at 10 uM measured every 2 mins for 16 to 20 hrs by spectramax 96-well plate reader analysis
Type: functional
assay_setup: read-out: GI

>  <compound>
COc1ccc(-c2ccc(/C=C3/NC(=S)N(C(Cc4ccccc4)C(=O)O)C3=O)s2)cc1 (stereo not drawn)

>  <inhibition of growth at 10 µM / %>
0

$$$$
>  <compound>
O=C(O)C(Cc1ccccc1)N1C(=O)/C(=C\c2ccc(-c3ccc(Cl)cc3)s2)NC1=S (stereo not drawn)

>  <inhibition of growth at 10 µM / %>
100

$$$$
>  <compound>
O=C(O)C(Cc1ccccc1)N1C(=O)/C(=C\c2ccc(-c3ccc(Br)cc3)o2)NC1=S (stereo not drawn)

>  <inhibition of growth at 10 µM / %>
100

$$$$
>  <compound>
O=C(O)C(Cc1ccccc1)N1C(=O)/C(=C\c2ccc(-c3ccc(I)cc3)o2)NC1=S (stereo not drawn)

>  <inhibition of growth at 10 µM / %>
100

$$$$
>  <compound>
O=C(O)C(Cc1ccccc1)N1C(=O)/C(=C\c2ccc(-c3ccc(OC(F)(F)F)cc3)o2)NC1=S (stereo not drawn)

>  <inhibition of growth at 10 µM / %>
100

$$$$
>  <compound>
CCC(C(=O)O)N1C(=O)/C(=C\c2ccc(-c3ccc(Cl)c(Cl)c3)o2)NC1=S (stereo not drawn)

>  <inhibition of growth at 10 µM / %>
100

$$$$
>  <compound>
O=C(O)C(Cc1ccccc1)N1C(=O)/C(=C\c2ccc(-c3ccccc3)o2)NC1=S (stereo not drawn)

>  <inhibition of growth at 10 µM / %>
10

$$$$
>  <compound>
O=C(O)C(Cc1ccccc1)N1C(=O)/C(=C\c2ccc(-c3ccc(Cl)c(Cl)c3)o2)NC1=S (stereo not drawn)

>  <inhibition of growth at 10 µM / %>
110

$$$$
>  <compound>
COc1ccc(-c2ccc(/C=C3/NC(=S)N(C(Cc4ccccc4)C(=O)O)C3=O)o2)cc1Cl (stereo not drawn)

>  <inhibition of growth at 10 µM / %>
30

$$$$
>  <compound>
O=C(O)C(Cc1ccccc1)N1C(=O)/C(=C\c2ccc(-c3cccc(Cl)c3)o2)NC1=S (stereo not drawn)

>  <inhibition of growth at 10 µM / %>
0

$$$$
>  <compound>
O=C(O)C(Cc1ccccc1)N1C(=O)/C(=C\c2ccc(-c3ccc(Br)cc3)s2)NC1=S (stereo not drawn)

>  <inhibition of growth at 10 µM / %>
100

$$$$
>  <compound>
O=C(O)C(Cc1ccccc1)N1C(=O)/C(=C\c2ccc(-c3ccc(Br)c(Cl)c3)o2)NC1=S (stereo not drawn)

>  <inhibition of growth at 10 µM / %>
100

$$$$
>  <compound>
O=C(O)C(Cc1ccccc1)N1C(=O)/C(=C\c2ccc(-c3cc(Cl)cc(Cl)c3)o2)NC1=S (stereo not drawn)

>  <inhibition of growth at 10 µM / %>
0

$$$$
>  <compound>
CCC(C(=O)NS(C)(=O)=O)N1C(=O)/C(=C\c2ccc(-c3ccc(Cl)c(Cl)c3)o2)NC1=S (stereo not drawn)

>  <inhibition of growth at 10 µM / %>
0

$$$$
>  <compound>
N#CNC(=O)C(Cc1ccccc1)N1C(=O)/C(=C\c2ccc(-c3ccc(Cl)c(Cl)c3)o2)NC1=S (stereo not drawn)

>  <inhibition of growth at 10 µM / %>
100

$$$$
>  <compound>
O=C(O)C(Cc1ccccc1)N1C(=O)/C(=C\c2ccc(-c3ccc(F)cc3)s2)NC1=S (stereo not drawn)

>  <inhibition of growth at 10 µM / %>
10

$$$$
>  <compound>
NC(=O)C(Cc1ccccc1)N1C(=O)/C(=C\c2ccc(-c3ccc(Cl)c(Cl)c3)o2)NC1=S (stereo not drawn)

>  <inhibition of growth at 10 µM / %>
90

$$$$
>  <compound>
O=C(O)C(Cc1ccccc1)N1C(=O)/C(=C\c2ccc(-c3ccc(Cl)cc3)o2)NC1=S (stereo not drawn)

>  <inhibition of growth at 10 µM / %>
70

$$$$
>  <compound>
CS(=O)(=O)NC(=O)C(Cc1ccccc1)N1C(=O)/C(=C\c2ccc(-c3ccc(Cl)c(Cl)c3)o2)NC1=S (stereo not drawn)

>  <inhibition of growth at 10 µM / %>
100

$$$$
>  <compound>
O=C(NS(=O)(=O)C(F)(F)F)C(Cc1ccccc1)N1C(=O)/C(=C\c2ccc(-c3ccc(Cl)c(Cl)c3)o2)NC1=S (stereo not drawn)

>  <inhibition of growth at 10 µM / %>
100

$$$$
>  <compound>
O=C(O)C(Cc1ccccc1)N1C(=O)/C(=C\c2ccc(-c3ccc(Br)c(Cl)c3)s2)NC1=S (stereo not drawn)

>  <inhibition of growth at 10 µM / %>
10

$$$$
>  <compound>
O=C(O)C(Cc1ccccc1)N1C(=O)/C(=C\c2ccc(-c3ccc(Cl)c(Cl)c3)s2)NC1=S (stereo not drawn)

>  <inhibition of growth at 10 µM / %>
110

$$$$
>  <compound>
CCOC(=O)C(Cc1ccccc1)N1C(=O)/C(=C\c2ccc(-c3ccc(Cl)c(Cl)c3)o2)NC1=S (stereo not drawn)

>  <inhibition of growth at 10 µM / %>
50

$$$$
